The entries below are paired with their reported NanoBRET Fold Response.
- system_name: BDKRB1 (Homo sapiens)
- Construct: purchased Promega (in-house HiBiT-GPCR construct library, NanoBRET)
- Sequence (P46663 whole entry): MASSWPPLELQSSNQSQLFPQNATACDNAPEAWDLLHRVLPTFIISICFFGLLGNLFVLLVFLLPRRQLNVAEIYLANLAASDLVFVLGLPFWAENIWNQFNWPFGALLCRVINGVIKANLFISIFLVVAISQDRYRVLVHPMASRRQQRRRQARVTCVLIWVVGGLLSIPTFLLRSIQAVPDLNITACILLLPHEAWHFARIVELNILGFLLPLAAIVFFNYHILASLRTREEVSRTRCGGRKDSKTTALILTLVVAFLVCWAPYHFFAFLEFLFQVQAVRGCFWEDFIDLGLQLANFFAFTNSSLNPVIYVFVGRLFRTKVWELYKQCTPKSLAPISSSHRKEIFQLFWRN
- protocol_details: NanoBRET screen HiBiT-BDKRB1 in HEK293
- Format: binding
- experimental_conditions: BDKRB1; tracer 1μM
quantity_measured: NanoBRET Fold Response

INSERT INTO results (smi, meas_value) VALUES
  ('CC(C)N(CC[C@H](c1ccccc1)c1cc(CCNC(=O)CCOCCOCCOCCOCCNC(=O)CCc2ccc3n2[B-](F)(F)[N+]2=C(c4ccc[nH]4)C=CC2=C3)ccc1O)C(C)C', 0.79),
  ('CC(C)N(CC[C@H](c1ccccc1)c1cc(CCNC(=O)c2ccc(CNC(=O)CCc3ccc4n3[B-](F)(F)[N+]3=C(c5ccc[nH]5)C=CC3=C4)cc2)ccc1O)C(C)C', 0.85),
  ('COc1ccccc1N1CCN(CCCCN2C(=O)c3ccc(CNC(=O)CCOCCNC(=O)c4ccc(CNC(=O)CCc5ccc6n5[B-](F)(F)[N+]5=C(c7ccc[nH]7)C=CC5=C6)cc4)cc3C2=O)CC1', 1.05),
  ('O=C(CCOCCOCCOCCOCCNC(=O)CCc1ccc2n1[B-](F)(F)[N+]1=C(c3ccc[nH]3)C=CC1=C2)NCCCN1CCN(C2=Nc3ccccc3Oc3ccc(Cl)cc32)CC1', 1.27),
  ('O=C(CCc1ccc2n1[B-](F)(F)[N+]1=C(c3ccc[nH]3)C=CC1=C2)NCCOCCOCCNC(=O)OCCOCCN1CCN(C2=Nc3ccccc3Sc3ccccc32)CC1', 0.65);
